Molecular target: recombinant human CETP (Homo sapiens)
Test: CETP in vitro fluorometric assay (Roar Biomedical), cholesterol ester transfer from HDL to LDL
Conditions: recombinant human CETP from CHO cells; 3 hours at 37° C.; fluorescence ex 485 nm / em 535 nm; compound concentrations between 1 nM and 30 μM; read-out: IC50 values for inhibition of CETP
metricName: IC50 (µM)

Example results:
CC1(C)Cc2nc(C3CCCC3)c3c(c2[C@@H](O)C1)C1(CCCC1)O[C@@H]3c1ccc(C(F)(F)F)cc1 [1(6)]	0.037
CC(C)c1ccc([C@H]2OC3(CCCC3)c3c2c(C(C)C)nc2c3[C@@H](O)CC3(CCC3)C2)cc1 [1(35)]	0.052
CC1(C)Cc2nc(C3CCC3)c3c(c2[C@@H](O)C1)C1(CCCC1)O[C@@H]3c1ccc(C(F)(F)F)cc1 [1(28)]	0.051

a. CC(C)c1nc2c(c3c1[C@@H](c1ccc(F)cc1)OC31CCCC1)[C@@H](O)CC(C)(C)C2 [1(8)]
b. CC(C)c1nc2c(c3c1[C@@H](c1cccc(C(F)(F)F)c1)OC31CCCC1)[C@@H](O)CC(C)(C)C2 [1(41)]
c. CC1(C)Cc2nc(C3CCOCC3)c3c(c2[C@@H](O)C1)C1(CCCC1)O[C@@H]3c1ccc(S(F)(F)(F)(F)F)cc1 [1(43)]
d. CC(C)(C)c1ccc([C@H]2OC3(CCCC3)c3c2c(C2CCOCC2)nc2c3[C@@H](O)CC(C)(C)[C@H]2O)cc1 [Example 4]
Please put the entries in order of rising IC50. Ranked list of labels, please, in the requested order.
c, d, b, a

###

Biological target: recombinant human CETP (Homo sapiens, UniProt P11597)
Experiment: CETP in vitro fluorometric assay (Roar Biomedical), cholesterol ester transfer from HDL to LDL
Details: recombinant human CETP from CHO cells; 3 hours at 37° C.; fluorescence ex 485 nm / em 535 nm; compound concentrations between 1 nM and 30 μM; read-out: IC50 values for inhibition of CETP
metricName: IC50 (nM)

A. CC(C)c1nc2c(c3c1[C@H](c1ccc(C(F)(F)F)cc1)OC31CCCC1)[C@@H](O)CC(C)(C)C2
B. CC(=O)O[C@@H]1c2nc(C(C)C)c3c(c2[C@@H](O)CC1(C)C)C1(CCCC1)O[C@@H]3c1ccc(C(F)(F)F)cc1
C. CC(C)c1nc2c(c3c1[C@@H](c1ccc(C4(C#N)CC4)cc1)OC31CCCC1)[C@@H](O)CC(C)(C)C2
In ascending order of recorded IC50, list the compounds from the set above. Ranked list of labels, please, in the requested order.
C, B, A
(C: 69 nM, B: 137 nM, A: 1430 nM)

###

Target: recombinant human CETP (Homo sapiens)
Sequence (P11597 18-493): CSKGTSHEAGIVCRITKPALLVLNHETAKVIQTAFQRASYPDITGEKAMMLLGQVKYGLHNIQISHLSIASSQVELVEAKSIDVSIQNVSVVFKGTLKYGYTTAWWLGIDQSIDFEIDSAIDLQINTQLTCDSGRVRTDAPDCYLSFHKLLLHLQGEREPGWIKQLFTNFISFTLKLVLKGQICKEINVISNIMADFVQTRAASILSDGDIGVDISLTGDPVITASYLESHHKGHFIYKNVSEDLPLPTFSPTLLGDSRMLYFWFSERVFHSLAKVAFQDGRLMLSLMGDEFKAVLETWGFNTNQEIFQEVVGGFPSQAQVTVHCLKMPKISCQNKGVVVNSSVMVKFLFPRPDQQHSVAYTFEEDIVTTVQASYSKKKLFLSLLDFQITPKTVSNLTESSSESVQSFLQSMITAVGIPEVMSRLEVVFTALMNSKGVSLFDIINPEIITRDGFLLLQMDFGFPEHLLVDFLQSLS
Test: CETP in vitro fluorometric assay (Roar Biomedical), cholesterol ester transfer from HDL to LDL
Conditions: recombinant human CETP from CHO cells; 3 hours at 37° C.; fluorescence ex 485 nm / em 535 nm; compound concentrations between 1 nM and 30 μM; read-out: IC50 values for inhibition of CETP
metricName: IC50 (nM)
Form entry: value (nM) — number only.

CC(C)c1ccc([C@H]2OC3(CCCC3)c3c2c(C2CCCC2)nc2c3[C@@H](O)CC(C)(C)C2)cc1 [1(29)]	88
CC1(C)Cc2nc(C3CCCC3)c3c(c2[C@@H](O)C1)C1(CCCC1)O[C@@H]3c1cccc(C(C)(C)C)c1 [1(31)]	1070

# context switch: different compound, same IC50
IC50 lookup needed for CC(C)c1nc2c(c3c1[C@@H](c1ccc(C(F)(F)F)cn1)OC31CCCC1)[C@@H](O)CC(C)(C)C2 [1(21)] , thanks.
124
